These measurements were taken from patent US20080146524A1.

- study_system: Neurolysine EC 3.4.24.16 (UniProt P42676)
- Assay type: biochemical
measured_parameter: enzyme inhibition EC 3.4.24.16 pIC50

{"molecule": "CCCCC(NC(=O)C(NC(=O)CCP(=O)(O)CCCCc1ccccc1)C(C)C)C(=O)O (stereo not drawn)", "enzyme inhibition EC 3.4.24.16 pIC50": 6.7}
{"molecule": "CCC(C)C(NC(=O)CCP(=O)(O)CCCCc1ccccc1)C(=O)NC(C(=O)O)C(C)C (stereo not drawn)", "enzyme inhibition EC 3.4.24.16 pIC50": 5.4}
{"molecule": "CCC(NC(=O)C(Cc1ccccc1)NC(=O)CCP(=O)(O)Cc1ccc2ccccc2c1)C(=O)O (stereo not drawn)", "enzyme inhibition EC 3.4.24.16 pIC50": 5.9}
{"molecule": "CCC(C)C(NC(=O)CCP(=O)(O)CCc1ccc2ccccc2c1)C(=O)NC(CC(C)C)C(=O)O (stereo not drawn)", "enzyme inhibition EC 3.4.24.16 pIC50": 6.6}
{"molecule": "CCCCC(NC(=O)C(C)N(C)C(=O)CCP(=O)(O)CCCCc1ccccc1)C(=O)O (stereo not drawn)", "enzyme inhibition EC 3.4.24.16 pIC50": 6.1}
{"molecule": "CCC(C)C(NC(=O)CCP(=O)(O)CCc1cccc2ccccc12)C(=O)NC(CC(C)C)C(=O)O (stereo not drawn)", "enzyme inhibition EC 3.4.24.16 pIC50": 5.2}
{"molecule": "CC(C)C(NC(=O)CCP(=O)(O)CCCCc1ccccc1)C(=O)NC(Cc1ccccc1)C(=O)O (stereo not drawn)", "enzyme inhibition EC 3.4.24.16 pIC50": 6.1}
{"molecule": "CCC(C)C(NC(=O)CCP(=O)(O)CCCCc1ccccc1)C(=O)NC(CC(C)C)C(=O)O (stereo not drawn)", "enzyme inhibition EC 3.4.24.16 pIC50": 5.6}
{"molecule": "CC(C)C(NC(=O)CCP(=O)(O)CCc1cccc2ccccc12)C(=O)NC(Cc1ccccc1)C(=O)O (stereo not drawn)", "enzyme inhibition EC 3.4.24.16 pIC50": 6.1}
{"molecule": "CCC(C)C(NC(=O)CCP(=O)(O)CCc1cccc2ccccc12)C(=O)NC(C(=O)O)C(C)C (stereo not drawn)", "enzyme inhibition EC 3.4.24.16 pIC50": 5.8}
{"molecule": "CCCCC(NC(=O)C(NC(=O)CCP(=O)(O)CCc1cccc2ccccc12)C(C)C)C(=O)O (stereo not drawn)", "enzyme inhibition EC 3.4.24.16 pIC50": 6.3}

====

- study_system: Thimet oligopeptidase EC 3.4.24.15 (UniProt P24155)
- measurement_protocol: enzyme inhibition of Thimet oligopeptidase EC 3.4.24.15 (published methods, Dauch 1991a,b)
- Assay type: biochemical
measured_parameter: enzyme inhibition EC 3.4.24.15 pIC50

{"compound": "CCC(C)C(NC(=O)CCP(=O)(O)CCCCc1ccccc1)C(=O)NC(C(=O)O)C(C)C (stereo not drawn)", "study_system": "Thimet oligopeptidase EC 3.4.24.15 (UniProt P24155)", "enzyme inhibition EC 3.4.24.15 pIC50": 5.8}
{"compound": "CCC(C)C(NC(=O)CCP(=O)(O)CCc1ccc2ccccc2c1)C(=O)NC(CC(C)C)C(=O)O (stereo not drawn)", "study_system": "Thimet oligopeptidase EC 3.4.24.15 (UniProt P24155)", "enzyme inhibition EC 3.4.24.15 pIC50": 7.0}
{"compound": "CCC(C)C(NC(=O)CCP(=O)(O)CCCCc1ccccc1)C(=O)NC(CC(C)C)C(=O)O (stereo not drawn)", "study_system": "Thimet oligopeptidase EC 3.4.24.15 (UniProt P24155)", "enzyme inhibition EC 3.4.24.15 pIC50": 6.3}
{"compound": "CCCC[C@H](NC(=O)[C@@H]1CCCN1C(=O)CCP(=O)(O)CCc1ccc2ccccc2c1)C(=O)O", "study_system": "Thimet oligopeptidase EC 3.4.24.15 (UniProt P24155)", "enzyme inhibition EC 3.4.24.15 pIC50": 8.9}
{"compound": "CCC(NC(=O)C(Cc1ccccc1)NC(=O)CCP(=O)(O)Cc1ccc2ccccc2c1)C(=O)O (stereo not drawn)", "study_system": "Thimet oligopeptidase EC 3.4.24.15 (UniProt P24155)", "enzyme inhibition EC 3.4.24.15 pIC50": 5.7}
{"compound": "CCC(C)C(NC(=O)CCP(=O)(O)CCc1cccc2ccccc12)C(=O)NC(CC(C)C)C(=O)O (stereo not drawn)", "study_system": "Thimet oligopeptidase EC 3.4.24.15 (UniProt P24155)", "enzyme inhibition EC 3.4.24.15 pIC50": 5.8}
